Record form. Attribute: growth. Fill in for each entry.
Tested on: HOP-92 NSCLC
Assay: NCI-60 one-dose screen, 48 h (100 = growth as untreated, 0 = no growth, -100 = all killed)
Details: 10 µM unless noted
About 83,000 compounds went through this panel and 20% of them were active in at least one assay; those are over-represented in the sample as a whole.
Numbers only, in %.

CCOC(=O)C1=C(C)NC(C)=C(C(=O)OCc2ccccc2)C1c1cccc(C#N)c1 (centres undefined) = 50.5
CC1(C)CC[C@]23CC[C@]4(C)[C@H](CC[C@@H]5[C@@]6(C)CC[C@H](NCO)C(C)(C)[C@@H]6CC[C@]54C)[C@H]2[C@H]1OC3 = 40.1

Please state growth for every molecule in the list that follows.
1. CNC(=O)c1cc(-c2ccc(NC(=S)Nc3cccc(C(F)(F)F)c3)cc2)nc2cccnc12
2. Cc1ccc2c(n1)C(=O)C(Cl)=C(Nc1ccccc1C(=O)OC(C)(C)C)C2=O
3. Cn1cc(-c2nnc(N)nc2-c2c[nH]c3ccc(F)cc23)c2cc(Br)ccc21
4. CN1CCN(Cc2ccc(/C=N/Nc3ccnc4cc(Cl)ccc34)cc2)CC1

A.
85
-72
56.5
64.3

----------
Test system: 786-0 renal
Assay: NCI-60 one-dose screen, 48 h (100 = growth as untreated, 0 = no growth, -100 = all killed)
Conditions: 10 µM unless noted
This is part of a sample that, as a whole, favours compounds with a hit. Of some 83,000 tested, about 20% had one in any assay.
// bucketize growth: bin A = under 20%, bin B = from 20% up to 90%, bin C = 90% and over

Solved entries:
COc1ccccc1/C=C1\Oc2ccc(O)c(O)c2C1=O = bin C
COc1cccc2c1[C@H](OC)[C@]13O[C@@]1(C2=O)[C@H](O)[C@H](C)[C@@](O)(C(=O)[C@@H]1O[C@H]1C)[C@@H]3O = bin A
CN1CCN(Cc2ccc(NC(=O)c3cncc(C#Cc4cnc5ccc(O[C@@H]6CCOC6)nn45)c3)cc2C(F)(F)F)CC1 = bin A
CC(=O)C1=C(C)NC(NNc2ccccc2)=NC1c1ccc([N+](=O)[O-])cc1 (stereo not drawn) = bin C

Q. Class (by measured growth) for "Cn1cc(-c2cc3ncnc(Nc4ccc(NC(=O)Nc5cc(C(C)(C)C)on5)cc4)c3s2)cn1"
A. bin A

Q. Just checking, what class would you give "Cc1cc(C)cc(NC2=C(Cl)C(=O)c3nc(C)ccc3C2=O)c1" here?
A. bin B

Q. Quick check: band for "O=C(CCCCCC/C=C\c1csc(Br)n1)NO"
A. bin C

Q. Would you mind sorting "O=C(/C=C/Nc1ccc(S(=O)(=O)Nc2ncccn2)cc1)c1ccc(N=Cc2c(O)[nH]c3ccccc23)cc1" into the appropriate category?
A. bin C

Q. Classify this compound: "CCN(CC)S(=O)(=O)c1ccc(-c2nc(C(Cl)Cl)nc3cc(-c4ccc(F)cc4)nn23)cc1"
A. bin B

Q. Which category fits this record: "COC(=O)[C@@H](Cc1c[nH]c2ccccc12)NC(=O)CCCCOc1cc(O)c2c(=O)cc(-c3ccccc3)oc2c1"
A. bin C

Q. Into which bin does this compound go? "NC(=S)n1c(=O)n(-c2cccc(C(F)(F)F)c2)c(=O)c2cc(-c3ccc(F)cc3F)ccc21"
A. bin A

Q. Form: Item = COc1ccc2c(c1)C=CC1(O2)Oc2ccc(OC)cc2C=C1C (stereo not drawn) ; Class = ?
A. bin B

Q. Band assignment needed for "C#Cc1cc(OC)c(C(=O)Nc2ccc(F)cc2C(=O)Nc2cccc(S(=O)(=O)C(F)(F)F)c2)cn1" please.
A. bin A

Q. Please indicate the class for "CNC(=O)c1cc(N2CCc3cc(NC(=O)Nc4ccc(N5CCN(C)CC5)c(C(F)(F)F)c4)ccc32)ccn1" based on its growth.
A. bin B

Q. Record "O=C1[C@@H]2Cc3c([nH]c4ccccc34)[C@@H](c3ccc(Cl)cc3)N2C(=O)CN1C1CCN(Cc2c(F)cccc2F)CC1" — which class?
A. bin B

Q. Where would "CC1=C(SCC(=O)OCCCCCC(C)C)C(=O)c2ccccc2C1=O" land among the classes by reported growth?
A. bin C
